pIC50 values, listed per item
Biological target: CDK2 (human)
Assay: Cell-Based Assay
Conditions: mda-mb-435
pIC50: −log10 of the molar value.

molecule="O=C1Nc2ccc(F)c3c(N4CCCC(CO)C4)cc(-c4ccc[nH]4)c1c23 (stereo not drawn)" property_measured=pIC50 value_observed="≥ 5.00"

query: What value of pIC50 has been recorded for this entry: O=C1Nc2ccc(F)c3c(N4CCCC(O)C4)cc(-c4ccc[nH]4)c1c23 (stereo not drawn)
result: ≥ 5.00

query: Repeat for the following molecule: NCC[S+]([O-])c1cc(-c2ccc[nH]2)c2c3c(ccc(F)c13)NC2=O (stereo not drawn)
result: ≥ 5.00

The measured values listed here are drawn from the Kinase Knowledgebase extract (Sharma et al. 2016).
